- EXPERIMENT SUMMARY: Solubility measurement (DMSO solution method), McIlvaine buffer pH 4.5 or 6.8
- Type: physicochemical
- EXPERIMENTAL PARAMETERS: aqueous buffer, kinetic from dmso stock; McIlvaine buffer pH 6.8; DMSO stock diluted to 250 μM; 24 h shaking at ambient temperature; read-out: solubility pH 6.8
Quick list: solubility at 24 h per entry.

Here's what some known entries look like.
- CHEMICAL STRUCTURE: "C[C@H](Oc1cc(-n2ccc(C(=O)N(C)C3COC3)n2)nc(-c2onc3c2CCC[C@@]32CCCc3sc(N)c(C#N)c32)n1)[C@@H]1CCCN1C"
  READOUT VALUE: "> 161 µg/mL"
- CHEMICAL STRUCTURE: "C[C@H](Oc1cc(N2CCNC3(COC3)C2)nc(-c2onc3c2CCC[C@@]32CCCc3sc(N)c(C#N)c32)n1)[C@@H]1CCCN1C"
  READOUT VALUE: "> 140 µg/mL"

Sample C[C@H](Oc1cc(-n2ccnc2)nc(-c2noc3c2CCC[C@@]32CCCc3sc(N)c(C#N)c32)n1)[C@@H]1C[C@@H](F)CN1C — what was its solubility at 24 h?
< 1 µg/mL

###

Each record here notes measured solubility at 24 h.
- EXPERIMENT SUMMARY: Solubility measurement (DMSO solution method), McIlvaine buffer pH 4.5 or 6.8
- Type: physicochemical
- EXPERIMENTAL PARAMETERS: aqueous buffer, kinetic from dmso stock; McIlvaine buffer pH 4.5; DMSO stock diluted to 250 μM; 24 h shaking at ambient temperature; read-out: solubility pH 4.5

Some molecules with known solubility at 24 h results, for comparison:
- CHEMICAL STRUCTURE: "C[C@H](Oc1cc(N2CCN(C)C3(COC3)C2)nc(-c2noc3c2CCC[C@@]32CCCc3sc(N)c(C#N)c32)n1)[C@@H]1CCCN1C"
  READOUT VALUE: "> 139 µg/mL"
- CHEMICAL STRUCTURE: "CO[C@H]1CCN(C)[C@@H]1[C@H](C)Oc1cc(-n2ccc(C(=O)N(C)C3COC3)n2)nc(-c2noc3c2CCC[C@@]32CCCc3sc(N)c(C#N)c32)n1"
  READOUT VALUE: "> 163 µg/mL"
- CHEMICAL STRUCTURE: "C[C@H](Oc1cc(N2CCN(C)C3(CC3)C2)nc(-c2noc3c2CCC[C@@]32CCCc3sc(N)c(C#N)c32)n1)[C@@H]1C[C@@H](F)CN1C"
  READOUT VALUE: "> 164 µg/mL"
- CHEMICAL STRUCTURE: "COCc1cn(-c2cc(O[C@@H](C)[C@@H]3CCCN3C)nc(-c3noc4c3CCC[C@@]43CCCc4sc(N)c(C#N)c43)n2)nn1"
  READOUT VALUE: "109 µg/mL"
- CHEMICAL STRUCTURE: "C[C@H](Oc1nc(-c2noc3c2CCC[C@@]32CCCc3sc(N)c(C#N)c32)cc(N2C[C@H](C)N[C@@H](C)C2)n1)[C@@H]1CCCN1C"
  READOUT VALUE: "> 150 µg/mL"

Please look up its solubility at 24 h: C[C@H](Oc1cc(-n2cc3ccn([C@H]4CCOC4)c(=O)c3n2)nc(-c2noc3c2CCC[C@@]32CCCc3sc(N)c(C#N)c32)n1)[C@@H]1CCCN1C
> 166 µg/mL

Item CO[C@H]1CCN(C)[C@@H]1[C@H](C)Oc1cc(-n2ccc(C(=O)N[C@@H]3CCOC3)n2)nc(-c2noc3c2CCC[C@@]32CCCc3sc(N)c(C#N)c32)n1 has what recorded solubility at 24 h?
> 173 µg/mL
